Hey, just so you know, these numbers are from paper PMC11062899.

- METHOD SUMMARY: in vivo
- SETTINGS: male, Wistar Han, rat, iv, 1 mg/kg, Concentration in blood samples
PROPERTY MEASURED: level at time molar at 0.08 h (nM)
Give bare numbers, in nM.

Prompt: May I ask what level at time molar at 0.08 h has been recorded for O=C1C[C@H]2CCCN2C(=O)[C@H](Cc2ccccc2)NC(=O)[C@@H](NC(=O)c2ccc(Cl)cc2)CCC=CCCCCN1 (mixture of isomers) [peptide 46] ?
Response: 1310

* * *

- METHOD SUMMARY: Metabolic stability in rat liver microsomes (RLMs)
- SETTINGS: rat, rat liver microsomes, pH 7.4, RLM CL Mean, mean of R1-R3
PROPERTY MEASURED: microsomal CLint at 10 μM
Numeric answer plus unit only.

Prompt: May I ask what microsomal CLint at 10 μM has been recorded for COc1ccc([C@@H]2Sc3ccccc3N(CCN(C)C)C(=O)[C@@H]2OC(C)=O)cc1 [Diltiazem, diltiazem, reference compound] ?
Response: 104 µL/min/mg

* * *

- METHOD SUMMARY: Metabolic stability in rat liver microsomes (RLMs)
- SETTINGS: rat, rat liver microsomes, pH 7.4
PROPERTY MEASURED: microsomal CLint at 10 μM (µL/min/mg)
Give bare numbers, in µL/min/mg.

Prompt: May I ask what microsomal CLint at 10 μM has been recorded for CC(=O)CC(c1ccccc1)c1c(O)c2ccccc2oc1=O (stereo not shown) [Warfarin, warfarin, reference compound] ?
Response: 2

* * *

Hi there, I'd appreciate the recorded SGF stability, Residual peptide Average for every entry that follows.
- ASSAY TARGET: porcine pepsin (Sus scrofa)
- Construct: 0.32 g of porcine pepsin (Sigma-Aldrich, P7125) was dissolved under gentle agitation; purchased Sigma-Aldrich P7125
- Sequence (P00791 60-385): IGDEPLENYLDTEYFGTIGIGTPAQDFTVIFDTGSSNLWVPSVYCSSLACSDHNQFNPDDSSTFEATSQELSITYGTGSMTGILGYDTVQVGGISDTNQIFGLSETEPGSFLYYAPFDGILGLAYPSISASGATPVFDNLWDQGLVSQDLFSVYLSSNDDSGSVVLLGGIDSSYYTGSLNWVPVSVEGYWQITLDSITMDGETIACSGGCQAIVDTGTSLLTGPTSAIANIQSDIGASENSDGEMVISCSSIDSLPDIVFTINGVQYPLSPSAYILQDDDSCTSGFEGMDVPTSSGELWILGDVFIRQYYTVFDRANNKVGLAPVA
- METHOD SUMMARY: Peptide stability in simulated gastric fluid (SGF)
- Format: in vitro ADME
- SETTINGS: after 8 h vs 0 h (TIC); average of R1-R3
Give bare numbers.

Worked cases, SGF stability, Residual peptide Average given:
O=C1NCCSCc2cccc(n2)CSC[C@H](NC(=O)c2ccc(Cl)s2)C(=O)N[C@@H](CO)C(=O)NCc2cccc1c2 98.89
O=C1CCSCc2ccc(cc2)CSCCNC(=O)[C@H](CNC(=O)c2ccc(Cl)s2)NC(=O)[C@H](Cc2ccccn2)N1 96.77
NC(=O)NCCC[C@@H]1NC(=O)[C@@H](NC(=O)c2ccc(Cl)s2)CNC(=O)CCSCc2cccc(n2)CSCCNC1=O 96.69

Prompt: May I ask what SGF stability, Residual peptide Average has been recorded for `O=C1CC2CCN(CC2)C(=O)[C@H](Cc2ccccc2)NC(=O)[C@@H](NC(=O)c2ccc(Cl)s2)CSCc2cccc(n2)CSCCN1` ?
Response: 98.62

* * *

Hi there, I'd appreciate the recorded microsomal CLint for every entry that follows.
- METHOD SUMMARY: Metabolic stability in rat liver microsomes (RLMs)
- SETTINGS: rat, microsomes, RLM CL, R3, RLM CL, replicate R3, summary block
One number for each entry, in µL/min/mg.

Worked cases, microsomal CLint given:
MOLECULE	VALUE UNIT	TEST VALUE
O=C1C[C@H]2CCCN2C(=O)[C@H](Cc2ccccc2)NC(=O)[C@@H](NC(=O)c2ccc(Cl)s2)CSC/C=C/CSCCN1 [peptide 32]	µL/min/mg	234
O=C1CSCCC[C@H](NC(=O)c2ccc(Cl)s2)C(=O)N[C@@H](Cc2ccccc2)C(=O)N2CCC[C@@H]2CC(=O)NCCSC1 [compound 37]	µL/min/mg	107
O=C1C[C@H]2CCCN2C(=O)[C@H](Cc2ccccc2)NC(=O)[C@@H](NC(=O)c2ccc(Cl)s2)CCSC/C=C/CSCCN1 [compound 34]	µL/min/mg	66.4
O=C1C[C@H]2CCCN2C(=O)[C@H](Cc2ccccc2)NC(=O)[C@@H](NC(=O)c2ccc(Cl)s2)CCCSCc2cccc(n2)CSCCN1 [compound 35]	µL/min/mg	88.3
O=C1C[C@H]2CCCN2C(=O)[C@H](Cc2ccccc2)NC(=O)[C@@H](NC(=O)c2ccc(Cl)s2)CSCc2cccc(n2)CSCCN1 [compound 31]	µL/min/mg	49.4

Return reported microsomal CLint values for all items listed beneath this line.
1. O=C1C[C@H]2CCCN2C(=O)[C@H](Cc2ccccc2)NC(=O)[C@@H](NC(=O)c2ccc(Cl)s2)CCCSC/C=C/CSCCN1 [compound 36]
2. O=C1C[C@H]2CCCN2C(=O)[C@H](Cc2ccccc2)NC(=O)[C@@H](NC(=O)c2ccc(Cl)s2)CCSCc2cccc(n2)CSCCN1 [compound 33]

Response:
1. 69.3
2. 58.8

* * *

- METHOD SUMMARY: Passive artificial membrane permeability (PAMPA)
- SETTINGS: PAMPA, pH 7.4
PROPERTY MEASURED: Papp at 50 μM (×10⁻⁶ cm/s)
Give bare numbers, in ×10⁻⁶ cm/s.

Worked cases, Papp at 50 μM given:
COMPOUND	Papp at 50 μM / ×10⁻⁶ cm/s
O=C1CCSCc2ccc(cc2)CSCCNC(=O)[C@H](CNC(=O)c2ccc(Cl)s2)NC(=O)[C@H](Cc2ccccn2)N1	1.2
CC(C)NCC(O)COc1cccc2ccccc12 (stereo not drawn) [Propranolol, reference compound]	12.3
O=C1C[C@H]2CCCN2C(=O)[C@H](Cc2ccccc2)NC(=O)[C@@H](NC(=O)c2ccc(Cl)s2)CC=CCCN1	3.47
O=C1C[C@H]2CCCN2C(=O)[C@H](Cc2ccccc2)NC(=O)[C@@H](NC(=O)c2ccc(Cl)cc2F)CCC=CCCCCN1	10.7
O=C1C[C@H]2CCCN2C(=O)[C@H](Cc2ccccc2)NC(=O)[C@@H](NC(=O)c2ccc(Cl)s2)CCSC/C=C/CSCCN1	4.57

Return reported Papp at 50 μM values for all items listed beneath this line.
1. O=C1CC2CCN(CC2)C(=O)[C@H](Cc2ccccc2)NC(=O)[C@@H](NC(=O)c2ccc(Cl)s2)CSCCS(=O)(=O)CCSCCN1
2. O=C1C[C@H]2CCCN2C(=O)[C@H](Cc2ccccc2)NC(=O)[C@@H](NC(=O)c2ccc(Cl)s2)CSCCS(=O)(=O)CCSCCN1 [peptide 11]
3. O=C(N[C@H]1CSCc2cccc(n2)CSCCNC(=O)[C@H](Cc2c[nH]cn2)NC(=O)C2(CCCC2)NC1=O)c1ccc(Cl)s1
4. O=C(N[C@H]1CSCCS(=O)(=O)CCSCCNC(=O)C2(CC2)CNC(=O)[C@H](Cc2ccccc2)NC1=O)c1ccc(Cl)s1

Response:
0.107
0.0708
0.00933
0.575

* * *

- METHOD SUMMARY: Metabolic stability in rat liver microsomes (RLMs)
- SETTINGS: rat, Half Life (min), R2, RLM metabolic stability, replicate R2
PROPERTY MEASURED: half-life (min)
Numbers only, in min.

Worked cases, half-life given:
MOLECULE	half-life (min)
O=C1C[C@H]2CCCN2C(=O)[C@H](Cc2ccccc2)NC(=O)[C@@H](NC(=O)c2ccc(Cl)s2)CCSC/C=C/CSCCN1 [compound 34]	16.2
O=C1C[C@H]2CCCN2C(=O)[C@H](Cc2ccccc2)NC(=O)[C@@H](NC(=O)c2ccc(Cl)s2)CCSCc2cccc(n2)CSCCN1 [compound 33]	19.5
O=C1C[C@H]2CCCN2C(=O)[C@H](Cc2ccccc2)NC(=O)[C@@H](NC(=O)c2ccc(Cl)s2)CSC/C=C/CSCCN1 [peptide 32]	5.02
O=C1C[C@H]2CCCN2C(=O)[C@H](Cc2ccccc2)NC(=O)[C@@H](NC(=O)c2ccc(Cl)s2)CCCSCc2cccc(n2)CSCCN1 [compound 35]	15.3

API: the following record is the query input.
Prompt: May I ask what half-life has been recorded for O=C1C[C@H]2CCCN2C(=O)[C@H](Cc2ccccc2)NC(=O)[C@@H](NC(=O)c2ccc(Cl)s2)CSCc2cccc(n2)CSCCN1 [compound 31] ?
Response: 28.5

* * *

- ASSAY TARGET: human α-thrombin (Homo sapiens, UniProt P00734)
- METHOD SUMMARY: Sub-library screen for active and permeable cyclic peptides (PAMPA plus thrombin inhibition)
- Format: biochemical
- SETTINGS: donor sample diluted to theoretical equilibrium (1 μM in assay); crude; slopes normalized to DMSO
PROPERTY MEASURED: Residual thrombin activity: Equilibrated sample
Answers are plain numbers.

MOLECULE	ASSAY TARGET	TEST VALUE
O=C1C[C@H]2CCCN2C(=O)[C@H](Cc2ccc(Cl)cc2)NC(=O)[C@@H](NC(=O)c2ccc(Cl)s2)CCSC/C=C/CSCCN1 [C2-X34-L4]	human α-thrombin (Homo sapiens, UniProt P00734)	98.5
O=C1C[C@H]2CCCN2C(=O)[C@H](Cc2ccc(Cl)cc2)NC(=O)[C@@H](NC(=O)c2ccc(Cl)s2)CCCSC/C=C/CSCCN1 [C3-X34-L4]	human α-thrombin (Homo sapiens, UniProt P00734)	91.1
COc1ccc(C[C@@H]2NC(=O)[C@@H](NC(=O)c3ccc(Cl)s3)CCCSCc3cccc(c3)CSCCNC(=O)C[C@H]3CCCN3C2=O)cc1 [C3-X33-L5]	human α-thrombin (Homo sapiens, UniProt P00734)	103.0
CN1C(=O)[C@@H](NC(=O)c2ccc(Cl)s2)CCCSCCS(=O)(=O)CCSCCNC(=O)C[C@H]2CCCN2C(=O)[C@@H]1Cc1ccccc1 [C3-X32-L2]	human α-thrombin (Homo sapiens, UniProt P00734)	103.4

Return reported Residual thrombin activity: Equilibrated sample values for all items listed beneath this line.
1. Cc1cccc(C[C@@H]2NC(=O)[C@@H](NC(=O)c3ccc(Cl)s3)CCSC/C=C/CSCCNC(=O)C[C@H]3CCCN3C2=O)c1 [C2-X37-L4]
2. CN1C(=O)[C@@H](NC(=O)c2ccc(Cl)s2)CSCC(=O)CSCCNC(=O)C[C@H]2CCCN2C(=O)[C@@H]1Cc1ccccc1 [C1-X32-L7]
3. Cc1cccc(C[C@@H]2NC(=O)[C@@H](NC(=O)c3ccc(Cl)s3)CCCSCc3cccc(n3)CSCCNC(=O)C[C@H]3CCCN3C2=O)c1 [C3-X37-L1]
4. O=C1C[C@H]2CCCN2C(=O)[C@H](Cc2ccccc2)NC(=O)[C@@H](NC(=O)c2ccc(Cl)s2)CCSCc2cccc(n2)CSCCN1 [C2-X5-L1]
5. O=C1C[C@H]2CCCN2C(=O)[C@H](Cc2ccccc2)NC(=O)[C@@H](NC(=O)c2ccc(Cl)s2)CSCc2cccc(c2)CSCCN1 [C1-X5-L5]
6. O=C1C[C@H]2CCCN2C(=O)[C@@H](Cc2ccccc2)NC(=O)[C@@H](NC(=O)c2ccc(Cl)s2)CSCc2cccc(c2)CSCCN1 [C1-X31-L5]
7. N#Cc1ccc(C[C@@H]2NC(=O)[C@@H](NC(=O)c3ccc(Cl)s3)CCCSCc3ccccc3CSCCNC(=O)C[C@H]3CCCN3C2=O)cc1 [C3-X35-L6]
8. COc1ccc(C[C@@H]2NC(=O)[C@@H](NC(=O)c3ccc(Cl)s3)CSCc3ccccc3CSCCNC(=O)C[C@H]3CCCN3C2=O)cc1 [C1-X33-L6]

Response:
1: 77.5; 2: 96.7; 3: 49.4; 4: 37.8; 5: 73.3; 6: 95.5; 7: 93.5; 8: 95.4
